Target: TNFα trimer (Homo sapiens)
Sequence (P01375 77-233 limits assumed): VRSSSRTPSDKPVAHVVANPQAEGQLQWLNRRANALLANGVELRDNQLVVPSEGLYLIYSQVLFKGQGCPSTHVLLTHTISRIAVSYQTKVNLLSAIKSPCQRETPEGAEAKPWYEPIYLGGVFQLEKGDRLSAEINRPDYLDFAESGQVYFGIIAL
Test: TNFα FP Competitive Binding Assay
Settings: TNFα FP competitive binding assay; class symbols A/B/C; read-out: TNF IC50
observed property: IC50

Known IC50 results, listed for orientation:
INSERT INTO measurements (compound, measured_value) VALUES
  ('OC1CCN(c2ncc(-c3ccc4nc5n(c4n3)C3(CCc4ccccc43)COC5)cn2)CC1(F)F (stereo not shown)', '< 1000 nM'),
  ('c1ccc([C@H]2CCc3nc4ccc(-c5cnn(C6CCOCC6)c5)nc4n32)cc1', '1000 to 10000 nM'),
  ('O=C1NC[C@@H]2CN(c3ncc(-c4ccc5nc6n(c5n4)C4(CCc5ccccc54)COC6)cn3)CCN12 (stereo partly shown)', '< 1000 nM'),
  ('O=C1NCC2CN(c3ncc(-c4ccc5nc6n(c5c4)[C@@H](c4ccccc4Cl)COC6)cn3)CCN12 (stereo partly shown)', '< 1000 nM'),
  ('O=C1NCC2CN(c3ncc(-c4ccc5nc6n(c5n4)[C@@H](C4CCCCC4)CC6)cn3)CCN12 (stereo partly shown)', '< 1000 nM');

I need IC50 for every entry listed below, if you could help.
1. c1ccc2c(c1)OCC21COCc2nc3ccc(-c4ccnc(OC5CCOCC5)c4)nc3n21 (stereo not shown)
2. O=C1NCN2CCN(c3ncc(-c4ccc5nc6n(c5n4)[C@@H](c4ccccc4)COC6)cn3)CC12 (stereo partly shown)
3. c1nc(N2CCOCC2)ncc1-c1ccc2nc3c(n2n1)C1(CCCCC1)OCC3
4. COc1ccccc1[C@H]1CCc2nc3ccc(-c4cnc(N5CCN(C(=O)CO)[C@H](C)C5)nc4)nc3n21

["1000 to 10000 nM", "< 1000 nM", "1000 to 10000 nM", "< 1000 nM"]

Recall the reported IC50 of OCC1(F)CCN(c2ncc(-c3ccc4nc5n(c4n3)C(c3ccccc3)COC5)cn2)CC1 (stereo not shown) when tested on TNFα trimer (Homo sapiens).
< 1000 nM
